- experimental-system: T1, His-tagged CEACAM1 (human, UniProt P13688 35-428)
- T1 construct: 45 kDa SPR analyte; also called CEACAM1-HIS; CEACAM1 analyte
- T1 sequence: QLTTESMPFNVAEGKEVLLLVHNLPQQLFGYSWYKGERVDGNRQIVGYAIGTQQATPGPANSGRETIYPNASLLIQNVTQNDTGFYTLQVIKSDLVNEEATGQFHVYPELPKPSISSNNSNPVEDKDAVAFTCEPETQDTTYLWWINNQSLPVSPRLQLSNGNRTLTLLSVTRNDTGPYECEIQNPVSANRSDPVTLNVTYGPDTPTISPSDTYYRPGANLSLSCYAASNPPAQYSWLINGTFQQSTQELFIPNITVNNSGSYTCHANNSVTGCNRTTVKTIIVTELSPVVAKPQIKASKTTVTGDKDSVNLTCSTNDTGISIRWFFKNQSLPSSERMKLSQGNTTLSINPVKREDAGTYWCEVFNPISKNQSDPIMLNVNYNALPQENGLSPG
- assay-details: SPR single-cycle, supernatant IgG captured
endpoint-name: koff (s⁻¹)
// units = s⁻¹; emit number, no label

Input CP09E05/CP08F05 (antibody, IgG4, V domains shown, IgG4 (S241P), kappa) VH: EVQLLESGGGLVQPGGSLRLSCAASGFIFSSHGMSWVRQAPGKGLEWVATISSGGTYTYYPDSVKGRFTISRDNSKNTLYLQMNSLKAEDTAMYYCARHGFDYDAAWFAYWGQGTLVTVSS VL: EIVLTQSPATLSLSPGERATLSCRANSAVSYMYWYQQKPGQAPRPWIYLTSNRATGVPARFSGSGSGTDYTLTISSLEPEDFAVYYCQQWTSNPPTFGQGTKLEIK . Output koff: 0.034

Input CP09E05/CP08G09 (antibody, IgG4, V domains shown, IgG4 (S241P), kappa) VH: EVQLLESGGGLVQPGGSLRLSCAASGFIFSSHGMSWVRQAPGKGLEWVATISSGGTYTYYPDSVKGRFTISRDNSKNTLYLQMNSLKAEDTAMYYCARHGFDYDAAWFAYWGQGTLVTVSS VL: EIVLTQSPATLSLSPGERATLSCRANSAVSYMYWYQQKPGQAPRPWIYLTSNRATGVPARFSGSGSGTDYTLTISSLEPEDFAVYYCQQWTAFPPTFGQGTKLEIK . Output koff: 0.043

Input CP08H03/CP08E05 (antibody, IgG4, V domains shown, IgG4 (S241P), kappa) VH: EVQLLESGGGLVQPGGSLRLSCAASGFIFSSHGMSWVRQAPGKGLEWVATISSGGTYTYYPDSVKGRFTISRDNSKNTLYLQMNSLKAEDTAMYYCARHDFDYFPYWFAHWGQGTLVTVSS VL: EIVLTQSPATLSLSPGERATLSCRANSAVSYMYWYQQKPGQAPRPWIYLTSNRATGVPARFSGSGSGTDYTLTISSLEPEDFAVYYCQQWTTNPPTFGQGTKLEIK . Output koff: 0.0085
